# Tested on: Escherichia coli TOP10;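 note: peptides expressed intracellularly from a pBAD plasmid library in pooled LB shake-flask culture, induced with 0.3% L-arabinose, DNA abundance read by NGS, three biological replicates, DESeq2 with apeglm shrinkage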
# test description: shrunken log2 fold change of peptide-encoding DNA abundance (4.5 h post-induction vs induction); higher = less antimicrobial activity (less host growth inhibition)
# measurement conditions: time post-induction: 4.5 h; library: site-saturation at positions 5, 18, 19, 20
Provide the recorded shrunken log2 fold change for the entries that follow.
Write the number on its own, no unit after it.

# input sequence: "RRIRKRPPRLPRPRPRPPFFPRP" ; wanted: its shrunken log2 fold change
0.476

// repeat for "RRIRLRPPRLPRPRPRPESYPRP" and report
-0.266

Next sequence: "RRIRFRPPRLPRPRPRPGFGPRP"
0.337

Please give the result for "RRIRVRPPRLPRPRPRPPLVPRP" too.
0.227

Next sequence: "RRIRMRPPRLPRPRPRPLNTPRP"
0.163

Try this sequence next: "RRIRGRPPRLPRPRPRPLARPRP"
0.91

Also "RRIRHRPPRLPRPRPRPWFPPRP" ?
-0.379

# repeat for "RRIRGRPPRLPRPRPRPGPQPRP"
0.719

// query: "RRIRVRPPRLPRPRPRPHGTPRP"
-0.408

And for "RRIRLRPPRLPRPRPRPYRLPRP" ?
-0.0305

Also need "RRIRLRPPRLPRPRPRPYGIPRP" , thanks.
-0.00489

Next sequence up: "RRIRERPPRLPRPRPRPYCNPRP"
-0.143

Queued: "RRIRWRPPRLPRPRPRPYPVPRP"
3.67

Next up: "RRIRYRPPRLPRPRPRPACHPRP"
-0.453

What about this sequence? "RRIRIRPPRLPRPRPRPAVDPRP"
-0.0902

Would you kindly repeat that for "RRIRFRPPRLPRPRPRPLASPRP" ?
-0.0784

Also "RRIRYRPPRLPRPRPRPTHPPRP" ?
-0.311

Would you kindly repeat that for "RRIRCRPPRLPRPRPRPELVPRP" ?
0.423

Next: "RRIRVRPPRLPRPRPRPDICPRP"
0.221

What do you get for "RRIRGRPPRLPRPRPRPMIVPRP" ?
0.554

Another: "RRIRGRPPRLPRPRPRPVEGPRP"
0.305

Next sequence up: "RRIRVRPPRLPRPRPRPMYIPRP"
-0.0844

Lookup "RRIRHRPPRLPRPRPRPLKLPRP"
0.0187

What would you report for "RRIRDRPPRLPRPRPRPEWAPRP" ?
0.746

// query: "RRIRQRPPRLPRPRPRPKMLPRP"
0.0996

Quick one: "RRIRNRPPRLPRPRPRPHERPRP"
-0.13

Note, next up: "RRIRKRPPRLPRPRPRPPQAPRP"
0.0481

Param item: "RRIRSRPPRLPRPRPRPFFTPRP"
-0.00429

Field entry: "RRIRTRPPRLPRPRPRPQGVPRP"
-0.0062

One more sequence: "RRIRKRPPRLPRPRPRPLLDPRP"
0.246

Now this one: "RRIRHRPPRLPRPRPRPWPAPRP"
0.292

Param item: "RRIRQRPPRLPRPRPRPPMEPRP"
-0.22

Further, for "RRIRKRPPRLPRPRPRPCVLPRP" ?
0.0725

And then "RRIRYRPPRLPRPRPRPYELPRP" , what is it?
-0.0164

Now consider "RRIRCRPPRLPRPRPRPIFQPRP" and answer again.
-0.0452

Subsequent entry: "RRIRMRPPRLPRPRPRPSEMPRP"
0.185

Please give the result for "RRIRRRPPRLPRPRPRPQWTPRP" too.
0.31

Same thing, different sequence: "RRIRSRPPRLPRPRPRPDVYPRP"
-0.0361

Entry to check: "RRIRLRPPRLPRPRPRPWGLPRP"
0.171

Can you handle "RRIRQRPPRLPRPRPRPANHPRP" next?
-0.728

Next sequence: "RRIRSRPPRLPRPRPRPGPNPRP"
-0.0665

Then what about the sequence "RRIRGRPPRLPRPRPRPECMPRP" ?
1.49

What about "RRIRGRPPRLPRPRPRPRGHPRP" ?
1.11

Likewise for "RRIRNRPPRLPRPRPRPMRCPRP" ?
-0.123

And for "RRIRVRPPRLPRPRPRPHAHPRP" ?
-0.256

Try this sequence too: "RRIRSRPPRLPRPRPRPDKYPRP"
-0.845

Check "RRIRDRPPRLPRPRPRPLSFPRP" too.
0.0422

Then "RRIRKRPPRLPRPRPRPADGPRP" ?
0.223

Note, next up: "RRIRARPPRLPRPRPRPNNQPRP"
-0.309

Similarly, "RRIRGRPPRLPRPRPRPMMFPRP" ?
0.69

Another sequence to check: "RRIRKRPPRLPRPRPRPGSSPRP"
-0.0653

Then "RRIRPRPPRLPRPRPRPTMNPRP" ?
-0.0529
